Data credit: patent US12310950B2

Test: in vivo
Conditions: rat, po, 300 mg/kg/day

| molecular-string | Cmax |
| --- | --- |
| Cn1c(Nc2ccc(I)cc2F)c(C(=O)NOCCO)c2cccnc21 | ~1360 ng/mL |
